// provenance: ChEMBL document CHEMBL1201862

# Tested on: NCI-H23
# testName: NCI tumour cell line growth inhibition, 48 h
Calls of active or inactive are those of the source. Rule as the data show it: active = GI50 up to about 1.1 µM and inactive = higher.
Outcome codes: active, inactive

# compound, classification
measured = [
    ("CCCCCCCCC(O)c1ccc(/C=C\\C(O)CCCC(=O)O)s1 (stereo unspecified)", "inactive"),
    ("Cc1ccc(/C=C2\\CCCc3ccccc3C2=O)cc1", "inactive"),
    ("Cc1ccc(NC(=O)CC2SC(Nc3ccc(Cl)cc3)=NC2=O)cc1C (stereo unspecified)", "inactive"),
    ("CCc1c(N=[N+]=[N-])c2ccccc2oc1=O", "inactive"),
    ("O=C(O)CCN(CCCN(CCC(=O)O)CCC(=O)O)CCC(=O)O", "inactive"),
    ("NC(=O)CO/N=C1/C(=C2/C(=O)Nc3ccccc32)Nc2ccccc21", "active"),
]

###

# Tested on: SF-295
# testName: NCI tumour cell line growth inhibition, 48 h
Activity calls are given as the source filed them. Rule as the data show it: active = GI50 up to about 1.1 µM and inactive = higher. Where a SMILES comes first, the peptide text is derived from it.

# molecule, GI50
rows = [
    ("O=C1CCCC(=O)N1CCc1c[nH]c2ccccc12", "> 100 µM (inactive)"),
    ("CCN(CC)c1ccc2cc3ccc(N(CC)CC)cc3[o+]c2c1", "4.48 µM (inactive)"),
    ("NC1(c2cc3ccccc3s2)CCCCCC1", "18.3 µM (inactive)"),
    ("N#Cc1cccc(N2C(=O)c3ccc(C(=O)c4ccc5c(c4)C(=O)N(c4cccc(C#N)c4)C5=O)cc3C2=O)c1", "> 100 µM (inactive)"),
    ("CC(=O)c1cc(CC2Cc3cc4c(cc3C2=O)CCC4)cc2c1CCC2 (stereo not drawn)", "20.4 µM (inactive)"),
    ("CCCCCCCCCCCCCC(=O)CC(=O)c1c(O)cccc1O", "42.4 µM (inactive)"),
    ("COC1OC(CBr)C(OC(=O)c2ccccc2)C(O)C1Br (stereo not drawn)", "> 100 µM (inactive)"),
    ("COc1ccc2c(c1)[n+]([O-])c(-c1ccccc1)c(N)[n+]2[O-]", "67.1 µM (inactive)"),
    ("CCNC(=O)c1c(O)nc2ccccc2c1O", "80.9 µM (inactive)"),
    ("CC1(C)CS(=O)(=O)CC(C)(C)C(=N/N)/C1=N\\N", "> 100 µM (inactive)"),
    ("O=C1N/C(=N\\N=C\\c2ccccc2)C2(CCCCC2)O1", "55.1 µM (inactive)"),
    ("O=S1(=O)OC(c2ccc(O)cc2)(c2ccc(O)cc2)c2ccccc21", "> 100 µM (inactive)"),
    ("CN(CCNC(=O)c1cn(C)c2c1ccc1ccccc12)CCNC(=O)c1cn(C)c2c1ccc1ccccc12", "3.05 µM (inactive)"),
    ("O=c1cc(-c2ccncc2)[nH]c2cc3c(cc12)OCO3", "> 100 µM (inactive)"),
    ("COc1cccc(C=O)c1C(=O)c1cc(O)ccc1O", "> 100 µM (inactive)"),
    ("O=C(/C=C/c1ccccc1)CSc1nc2ccc(I)cc2c(=O)n1Cc1ccccc1", "14 µM (inactive)"),
    ("Cn1cnc([N+](=O)[O-])c1Sc1nnc(-c2cccnc2)n1C", "> 100 µM (inactive)"),
    ("COc1cccc(Cc2c3cc(OC)ccc3cc[n+]2C)c1", "> 100 µM (inactive)"),
    ("CN(C)c1ccc(C(=C2C=CC(=[N+](C)C)C=C2)c2c(O)c(S(=O)(=O)[O-])cc3cc(S(=O)(=O)O)ccc23)cc1", "> 100 µM (inactive)"),
    ("O=C1OC(CC(=O)c2ccc(Cl)cc2)C(Cl)=C1Cl (stereo not drawn)", "> 100 µM (inactive)"),
    ("CCc1c(N=[N+]=[N-])c2ccccc2oc1=O", "> 100 µM (inactive)"),
    ("C=C1CC[C@@H]2[C@](C)(COC(=O)CCC(=O)OC)CCC[C@@]2(C)[C@@H]1CCC1=CC(=O)OC1", "> 100 µM (inactive)"),
    ("COC(=O)[C@@H]1O[C@]12[C@@H](CO[Si](C)(C)C(C)(C)C)O[C@@H](n1cc(C)c(=O)[nH]c1=O)[C@@H]2O[Si](C)(C)C(C)(C)C", "21.2 µM (inactive)"),
    ("COc1ccc2c(CN3CCCCC3CO)cc3cc(OC)c(OC)cc3c2c1 (stereo not drawn)", "3.02 µM (inactive)"),
    ("CNC(=O)CNC(=O)C(NC(=O)CNC(=O)C1CCCN1C(=O)C(C)NC(=O)C(NC(C)=O)C(C)C)C(C)C (stereo not drawn) (Ac-VAPGVG-NHMe; configuration not given here)", "> 100 µM (inactive)"),
    ("Sc1nnc(SCc2ccccc2Cl)c2nc[nH]c12", "> 100 µM (inactive)"),
    ("CC1(C)[C@@H]2CC[C@]1(C)[C@H](OC(=O)/C=C/c1ccccc1)C2", "18 µM (inactive)"),
    ("Cc1ccc(N2C=Nn3c(nc4sc5c(c4c3=O)CCCC5)C2)cc1", "44.8 µM (inactive)"),
    ("CC(C)NCCNC(=O)c1ccccc1Nc1c(Cl)cccc1Cl", "15.2 µM (inactive)"),
    ("CC12CCC(=O)N1[C@@H](c1ccccc1)[C@@H](c1ccccc1)O2 (stereo partly drawn)", "> 100 µM (inactive)"),
    ("CC(=O)OCC1OC(n2c(C)c(/N=N/c3ccccc3)c(C)c(C#N)c2=S)C(OC(C)=O)C(OC(C)=O)C1OC(C)=O (stereo not drawn)", "15 µM (inactive)"),
    ("Cc1cc(C)nc(NS(=O)(=O)c2ccc(Nc3c4ccccc4nc4c(C(=O)NCCO)cccc34)cc2)n1", "11.8 µM (inactive)"),
    ("CN1N=C2c3ccccc3CC[C@H]2C1c1ccccc1 (stereo partly drawn)", "35.3 µM (inactive)"),
]

###

# System: KM12
# testName: NCI tumour cell line growth inhibition, 48 h
Activity calls are given as the source filed them. Rule as the data show it: active = GI50 up to about 1.1 µM and inactive = higher.
Here, each record is paired with measured GI50 data.
measurementKind: GI50

# molecule, experimentalTarget, measurementKind, result
measured = [
    ("COc1ccccc1Cc1nc(-c2ccccc2)nn(C2OC(COC(C)=O)C(OC(C)=O)C(OC(C)=O)C2OC(C)=O)c1=S (stereo unspecified)", "KM12", "GI50", "> 54.6 µM (inactive)"),
    ("Nc1ccc(-c2nnc(-c3c(Cl)c(Cl)c(Cl)c(Cl)c3-c3nc4cc(C(=O)c5ccccc5)ccc4[nH]3)o2)cc1", "KM12", "GI50", "27.9 µM (inactive)"),
    ("CCCn1c(=O)c(N2CCN(c3ccccc3)CC2)nc2sc3ccccc3c21", "KM12", "GI50", "> 100 µM (inactive)"),
    ("COC(=O)C1CC2C=CC=CC(=O)C2(C)C1 (stereo unspecified)", "KM12", "GI50", "45.7 µM (inactive)"),
    ("CCOC(OCC)N1C(=O)C2(C(OCC)OCC)CC3C(OC(=O)N3N)c3cccc1c32 (stereo unspecified)", "KM12", "GI50", "> 100 µM (inactive)"),
    ("Clc1ccc(C(SCc2ccccc2)SCc2ccccc2)cc1", "KM12", "GI50", "> 10 µM (inactive)"),
    ("COc1ccccc1/C=C1\\C(=O)N(C(=O)Cc2ccccc2)N=C1C", "KM12", "GI50", "> 100 µM (inactive)"),
    ("O=C(CC(C(=O)c1cccs1)c1ccsc1)c1ccc(Cl)s1 (stereo unspecified)", "KM12", "GI50", "> 100 µM (inactive)"),
    ("COc1cccc(C=O)c1C(=O)c1cc(O)ccc1O", "KM12", "GI50", "> 100 µM (inactive)"),
    ("CC1C2=C(CCCC2=O)N(c2ccc(Cl)cc2)C2=C1C(=O)CCC2", "KM12", "GI50", "> 100 µM (inactive)"),
    ("C=C(C)C(=O)[C@@]12C(=O)[C@@H](C)CC[C@H]1[C@H](C)C[C@@H]2C=C(C)C", "KM12", "GI50", "23.9 µM (inactive)"),
    ("CC(C)N(CC(=O)O)CC(=O)O", "KM12", "GI50", "> 100 µM (inactive)"),
    ("S=c1[nH]nc(Cn2c3ccc(Br)cc3c3nc4ccccc4nc32)o1", "KM12", "GI50", "47.3 µM (inactive)"),
    ("CC(=O)c1ccc(NC(=O)COC(=O)c2cccc3c(=O)c4ccccc4[nH]c23)cc1", "KM12", "GI50", "12.9 µM (inactive)"),
    ("CCOC(=O)C(C(=O)OCC)=C1N[C@H](C(=O)OCC)CS1", "KM12", "GI50", "> 100 µM (inactive)"),
    ("CC(=O)OCC(OC(C)=O)C1C[C@H]2O[C@@H]3[C@H](C[C@H]2O1)O[C@@]1(C[C@@H]3C)C[C@H](C)[C@@H]2O[C@]3(C[C@@H]2O1)C[C@H]1O[C@H]2[C@H](C)[C@H]4OC(=O)CC5CC[C@H]6OC7[C@H]8O[C@]9(CC[C@H]%10CC(O)(CO)[C@H](CC[C@H]%11C[C@@H](C)C(O)(CO)C(C[C@@H]4O[C@H]2C[C@H]1O3)O%11)O%10)CC8O[C@@H]7[C@@H](O9)[C@H]6O5 (stereo partly specified)", "KM12", "GI50", "0.00415 µM (active)"),
    ("COc1c2cc([N+](=O)[O-])cc1CN(C(=O)C(F)(F)F)CCOCCN(C(=O)C(F)(F)F)C2", "KM12", "GI50", "> 100 µM (inactive)"),
    ("CC1(C)CS(=O)(=O)CC(C)(C)C(=N/N)/C1=N\\N", "KM12", "GI50", "> 100 µM (inactive)"),
    ("O=C1C2=Cc3ccccc3OC2(O)Oc2cc(O)cc(O)c21 (stereo unspecified)", "KM12", "GI50", "> 100 µM (inactive)"),
    ("N#C/C(=C\\c1ccc(O)c(O)c1)C(N)=S", "KM12", "GI50", "68.2 µM (inactive)"),
    ("CC1C(=O)C(C)C(c2cccs2)N(N=O)C1c1cccs1 (stereo unspecified)", "KM12", "GI50", "> 100 µM (inactive)"),
    ("CC(C)(C)N1NC1C1NN1C(C)(C)C (stereo unspecified)", "KM12", "GI50", "> 100 µM (inactive)"),
    ("CCc1c(N=[N+]=[N-])c2ccccc2oc1=O", "KM12", "GI50", "> 100 µM (inactive)"),
    ("CN(C(=N)c1ccccc1)c1ccccc1", "KM12", "GI50", "> 100 µM (inactive)"),
    ("c1ccc(-c2sc(-c3ccccc3)c3c2C(c2ccccc2)c2c(-c4ccccc4)sc(-c4ccccc4)c2C3c2ccccc2)cc1 (stereo unspecified)", "KM12", "GI50", "> 100 µM (inactive)"),
    ("CC1CC(c2ccccc2)Nc2nc3ccccc3n21 (stereo unspecified)", "KM12", "GI50", "> 100 µM (inactive)"),
    ("NC1=NCC(CN2CCOCC2)O1 (stereo unspecified)", "KM12", "GI50", "> 100 µM (inactive)"),
    ("Cc1nn(-c2ccccc2)c(C)c1/C=N/N=C1\\S/C(=C\\c2ccc(Cl)cc2)C(=O)N1c1ccccc1", "KM12", "GI50", "7.67 µM (inactive)"),
    ("CCCc1c(O)c(=O)c2c(OC)cc(OC)c3c4c(OC)cc(OC)c5c(=O)c(O)c(CCC)c(c1c23)c54", "KM12", "GI50", "0.458 µM (active)"),
    ("O=c1cc(-c2ccccc2)oc2ccc(Oc3nnnn3-c3ccccc3)cc12", "KM12", "GI50", "> 100 µM (inactive)"),
    ("COc1ccc(C2=NN(c3ccccc3)C[N+](c3ccc(OC)cc3)=N2)cc1", "KM12", "GI50", "21.3 µM (inactive)"),
    ("CCCCCCCC(=O)N1C2CC3CCC2(CS1(=O)=O)C3(C)C (stereo unspecified)", "KM12", "GI50", "26.2 µM (inactive)"),
    ("NC(=O)NNC/C(Cl)=C(\\Cl)C(=O)O", "KM12", "GI50", "> 100 µM (inactive)"),
    ("O=NN1CCN=C1c1ccc([N+](=O)[O-])cc1", "KM12", "GI50", "> 100 µM (inactive)"),
    ("O=[N+]([O-])c1ccc(-c2nc3cc([N+](=O)[O-])ccc3[nH]2)cc1", "KM12", "GI50", "24.8 µM (inactive)"),
    ("CCOC(=O)C1(C(=O)OCC)C[C@H](C)[C@](C)(O)C1", "KM12", "GI50", "> 100 µM (inactive)"),
]
